Target: Peptidyl-prolyl cis-trans isomerase FKBP1A (Homo sapiens) (UniProt P62942)
Sequence (P62942 whole entry, looked up): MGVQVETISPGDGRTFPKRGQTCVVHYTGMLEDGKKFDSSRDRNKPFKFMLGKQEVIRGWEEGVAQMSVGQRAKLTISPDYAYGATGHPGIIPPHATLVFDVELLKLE
Assay: small-molecule binding to FKBP12 – biophysical, NMR detection (AID 608)
Details: purified FKBP12
Active and inactive are the calls of the source. The rule behind the calls is not given here.
Outcome codes: class 1 for active, class 0 for inactive

{"columns": ["Compound", "Class"],
 "data": [
  ["CC(=O)Nc1cccc(N2C(=O)CCC2=O)c1", "class 0"],
  ["COC(=O)C1=CCCN(C)C1", "class 0"],
  ["COc1cc(C(C)=O)cc(OC)c1O", "class 0"],
  ["Nc1nnc(COc2cccc(C(F)(F)F)c2)s1", "class 0"],
  ["COc1cc2[nH]c(=S)n(C)c(=O)c2cc1OC", "class 0"],
  ["Cc1oc2nc3c(c(=O)[nH]c(=O)n3C)n2c1C", "class 0"],
  ["c1ccn(Cc2ccncc2)c1", "class 0"],
  ["O=C(CSc1ccc2ccccc2c1)N1CCOCC1", "class 1"],
  ["O=C(Nc1cccc(O)c1)c1ccccc1", "class 0"],
  ["NC(=O)c1ccc(N=Cc2ccc[nH]2)cc1", "class 0"],
  ["Nc1nc2ccc(C(=O)O)cc2s1", "class 0"],
  ["COCC(=O)/C=C1\\Sc2ccccc2N1C", "class 0"],
  ["Cc1nn2c(=O)nc3sc4c(c3c2[nH]c1=O)CCCC4", "class 0"],
  ["NCc1ccc(-c2cccs2)cc1", "class 0"],
  ["O=C(O)c1ccc(Oc2ccccc2)nc1", "class 0"],
  ["NC(=O)c1ccc(Cl)c(N2C(=O)CCC2=O)c1", "class 0"],
  ["Cc1n[nH]c(C)c1NC(=O)c1cccc(F)c1", "class 0"],
  ["COc1cc2c(cc1OC)C(=O)OC2", "class 0"],
  ["O=C(c1sc2cccc(Cl)c2c1Cl)N1CCOCC1", "class 0"],
  ["O=C(c1cc(Cl)cc(Cl)c1)N1CCOCC1", "class 0"],
  ["O=C(O)c1cn(-c2ccccc2)nc1-c1cccnc1", "class 0"],
  ["CC(C)[C@@H]1CC[C@@H](C)C[C@H]1OC(=O)c1ccccc1", "class 0"],
  ["CC(=O)c1csc(-c2cc(C)on2)n1", "class 0"],
  ["Cc1ccc(SCC(=O)N2CC(C)OC(C)C2)cc1 (centres undefined)", "class 0"],
  ["COc1ccc(N2CC(=O)NC2=O)cc1", "class 0"],
  ["O=c1ccn(Cc2ccccc2)c(=O)[nH]1", "class 0"],
  ["CC(=O)Nc1ccc(N(C)C(C)=O)cc1", "class 0"],
  ["O=C(NCCO)c1ccccc1I", "class 0"],
  ["CNC(=O)Nc1cccc(C(F)(F)F)c1", "class 0"]
]}

Origin of the recorded values: PubChem BioAssay AID608
